target: human A2A receptor (A2AR) (Homo sapiens, UniProt P29274); experiment: Luciferase reporter assay (HEK293-A2AR-luc2p/CRE/Hygro cells, 3 nM CGS21680); details: 3 nM CGS21680, 5 h incubation
Sequence (P29274 whole entry): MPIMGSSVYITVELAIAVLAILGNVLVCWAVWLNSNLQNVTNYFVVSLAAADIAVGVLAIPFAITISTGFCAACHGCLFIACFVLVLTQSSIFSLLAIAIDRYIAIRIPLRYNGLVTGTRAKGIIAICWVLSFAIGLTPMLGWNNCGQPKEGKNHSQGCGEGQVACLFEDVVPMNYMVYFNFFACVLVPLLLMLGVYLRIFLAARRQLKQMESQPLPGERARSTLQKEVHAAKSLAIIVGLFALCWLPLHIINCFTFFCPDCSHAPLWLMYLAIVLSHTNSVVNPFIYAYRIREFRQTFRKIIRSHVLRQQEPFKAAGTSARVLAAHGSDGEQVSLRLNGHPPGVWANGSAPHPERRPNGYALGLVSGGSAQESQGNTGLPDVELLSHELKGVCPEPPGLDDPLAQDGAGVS
quantity: IC50 (nM)

Worked set:
compound | targetSystem | IC50 (nM)
CCCC(C(=O)N1CCN(c2c(F)cc(OCCOC)cc2F)CC1)n1ncc2c1nc(N)n1nc(-c3ccco3)nc21 (stereo not drawn) | human A2A receptor (A2AR) (Homo sapiens, UniProt P29274) | 4.5
C[C@@](C(=O)N1CCN(c2ccc(OCCCN3CCCC3)cc2)CC1)(c1ccccc1)n1ncc2c1nc(N)n1nc(-c3ccco3)nc21 [Compound A79a] | human A2A receptor (A2AR) (Homo sapiens, UniProt P29274) | 21.4
COCCOCCOc1ccc(N2CCN(C(=O)C(C(C)C)n3cc4c(nc(N)n5nc(-c6ccco6)nc45)n3)CC2)cc1 (stereo not drawn) | human A2A receptor (A2AR) (Homo sapiens, UniProt P29274) | 337
COCCOCCOc1ccc(N2CCN(C(=O)C(C3CC3)n3cc4c(nc(N)n5nc(-c6ccco6)nc45)n3)CC2)cc1 (stereo not drawn) | human A2A receptor (A2AR) (Homo sapiens, UniProt P29274) | 12.8

a = COCCOCCOc1ccc(N2CCN(C(=O)C(c3ccccc3)n3ncc4c3nc(N)n3nc(-c5ccco5)nc43)CC2)cc1 (stereo not drawn)
b = Nc1nc2c(cnn2C(C(=O)N2CCc3ccccc3C2)c2ccccc2)c2nc(-c3ccco3)nn12 (single isomer, unassigned) [Compound B3a]
Input: Lab log: flag the item ( a or b ) with the smaller IC50 figure. Write down the label of the entry you select.
Output: a
(a: 12.7 nM, b: 21.6 nM)
